Experiment: Buffer/octanol partition coefficient, log D of the compound at pH 7.4 by shake flask method
Type: physicochemical
Attribute measured: logD

| Mol smiles | Measured |
| --- | --- |
| O=c1[nH]c2cnc3ccc(-c4cccnc4)cc3c2n1C1CCOCC1 | 2.4 |
| CO[C@H]1C[C@@H](n2c(=O)n(C)c3cnc4cc(F)c(-c5ccc(N(C)CCN(C)C)nc5)cc4c32)C1 | 2.2 |
| CN(C)CCCOc1ccc(-c2cc3c(cc2F)ncc2c3n(C3CCOCC3)c(=O)n2C)cn1 | 1.5 |
| CC(C)n1c(=O)n(C2CCOCC2)c2c3cc(-c4cccnc4)ccc3ncc21 | 2.9 |
| CN(C)CCCOc1ccc(-c2ccc3ncc4c(c3c2)n([C@H]2CCCOC2)c(=O)n4C)cn1 | 1.8 |
| COCc1ccc(-c2cc3c(cc2F)ncc2c3n([C@H]3C[C@H](OC)C3)c(=O)n2C)cn1 | 3 |
| COCc1ccc(-c2cc3c(cc2F)ncc2c3n([C@H]3C[C@@H](OC)C3)c(=O)n2C)cn1 | 2.7 |
| CO[C@H]1C[C@@H](n2c(=O)n(C)c3cnc4cc(F)c(-c5ccc(NCCN(C)C)nc5)cc4c32)C1 | 1.7 |
| CO[C@H]1C[C@@H](n2c(=O)n(C)c3cnc4cc(F)c(-c5ccc(C(=O)NCCN(C)C)nc5)cc4c32)C1 | 1.5 |
| COCc1ccc(-c2cc3c(cc2F)ncc2c3n([C@H]3C[C@@H](O)C3)c(=O)n2C)cn1 | 2 |
| CNCCCOc1ccc(-c2ccc3ncc4c(c3c2)n([C@H]2C[C@@H](OC)C2)c(=O)n4C)cn1 | 0.4 |
| CN(C)CCCOc1ccc(-c2ccc3ncc4c(c3n2)n(C2CCOCC2)c(=O)n4C)cn1 | 1.6 |
| COCc1ccc(-c2ccc3ncc4c(c3c2)n(C2CCOCC2)c(=O)n4C)cn1 | 2.3 |
| CO[C@H]1C[C@@H](n2c(=O)n(C)c3cnc4ccc(-c5ccc(OCCCN(C)C)nc5)cc4c32)C1 | 1.6 |
| Cn1c(=O)n(C2CCOCC2)c2c3cc(-c4cccnc4)ccc3ncc21 | 2.2 |
| CO[C@H]1C[C@@H](n2c(=O)n(C)c3cnc4ccc(-c5ccc(OCCCN6CCOCC6)nc5)cc4c32)C1 | 1.4 |
| CO[C@H]1C[C@@H](n2c(=O)n(C)c3cnc4cc(F)c(-c5ccc(CO)nc5)cc4c32)C1 | 2 |

----------
Molecular target: Serine/threonine-protein kinase ATR (Homo sapiens, UniProt Q13535)
Sequence (Q13535 whole entry): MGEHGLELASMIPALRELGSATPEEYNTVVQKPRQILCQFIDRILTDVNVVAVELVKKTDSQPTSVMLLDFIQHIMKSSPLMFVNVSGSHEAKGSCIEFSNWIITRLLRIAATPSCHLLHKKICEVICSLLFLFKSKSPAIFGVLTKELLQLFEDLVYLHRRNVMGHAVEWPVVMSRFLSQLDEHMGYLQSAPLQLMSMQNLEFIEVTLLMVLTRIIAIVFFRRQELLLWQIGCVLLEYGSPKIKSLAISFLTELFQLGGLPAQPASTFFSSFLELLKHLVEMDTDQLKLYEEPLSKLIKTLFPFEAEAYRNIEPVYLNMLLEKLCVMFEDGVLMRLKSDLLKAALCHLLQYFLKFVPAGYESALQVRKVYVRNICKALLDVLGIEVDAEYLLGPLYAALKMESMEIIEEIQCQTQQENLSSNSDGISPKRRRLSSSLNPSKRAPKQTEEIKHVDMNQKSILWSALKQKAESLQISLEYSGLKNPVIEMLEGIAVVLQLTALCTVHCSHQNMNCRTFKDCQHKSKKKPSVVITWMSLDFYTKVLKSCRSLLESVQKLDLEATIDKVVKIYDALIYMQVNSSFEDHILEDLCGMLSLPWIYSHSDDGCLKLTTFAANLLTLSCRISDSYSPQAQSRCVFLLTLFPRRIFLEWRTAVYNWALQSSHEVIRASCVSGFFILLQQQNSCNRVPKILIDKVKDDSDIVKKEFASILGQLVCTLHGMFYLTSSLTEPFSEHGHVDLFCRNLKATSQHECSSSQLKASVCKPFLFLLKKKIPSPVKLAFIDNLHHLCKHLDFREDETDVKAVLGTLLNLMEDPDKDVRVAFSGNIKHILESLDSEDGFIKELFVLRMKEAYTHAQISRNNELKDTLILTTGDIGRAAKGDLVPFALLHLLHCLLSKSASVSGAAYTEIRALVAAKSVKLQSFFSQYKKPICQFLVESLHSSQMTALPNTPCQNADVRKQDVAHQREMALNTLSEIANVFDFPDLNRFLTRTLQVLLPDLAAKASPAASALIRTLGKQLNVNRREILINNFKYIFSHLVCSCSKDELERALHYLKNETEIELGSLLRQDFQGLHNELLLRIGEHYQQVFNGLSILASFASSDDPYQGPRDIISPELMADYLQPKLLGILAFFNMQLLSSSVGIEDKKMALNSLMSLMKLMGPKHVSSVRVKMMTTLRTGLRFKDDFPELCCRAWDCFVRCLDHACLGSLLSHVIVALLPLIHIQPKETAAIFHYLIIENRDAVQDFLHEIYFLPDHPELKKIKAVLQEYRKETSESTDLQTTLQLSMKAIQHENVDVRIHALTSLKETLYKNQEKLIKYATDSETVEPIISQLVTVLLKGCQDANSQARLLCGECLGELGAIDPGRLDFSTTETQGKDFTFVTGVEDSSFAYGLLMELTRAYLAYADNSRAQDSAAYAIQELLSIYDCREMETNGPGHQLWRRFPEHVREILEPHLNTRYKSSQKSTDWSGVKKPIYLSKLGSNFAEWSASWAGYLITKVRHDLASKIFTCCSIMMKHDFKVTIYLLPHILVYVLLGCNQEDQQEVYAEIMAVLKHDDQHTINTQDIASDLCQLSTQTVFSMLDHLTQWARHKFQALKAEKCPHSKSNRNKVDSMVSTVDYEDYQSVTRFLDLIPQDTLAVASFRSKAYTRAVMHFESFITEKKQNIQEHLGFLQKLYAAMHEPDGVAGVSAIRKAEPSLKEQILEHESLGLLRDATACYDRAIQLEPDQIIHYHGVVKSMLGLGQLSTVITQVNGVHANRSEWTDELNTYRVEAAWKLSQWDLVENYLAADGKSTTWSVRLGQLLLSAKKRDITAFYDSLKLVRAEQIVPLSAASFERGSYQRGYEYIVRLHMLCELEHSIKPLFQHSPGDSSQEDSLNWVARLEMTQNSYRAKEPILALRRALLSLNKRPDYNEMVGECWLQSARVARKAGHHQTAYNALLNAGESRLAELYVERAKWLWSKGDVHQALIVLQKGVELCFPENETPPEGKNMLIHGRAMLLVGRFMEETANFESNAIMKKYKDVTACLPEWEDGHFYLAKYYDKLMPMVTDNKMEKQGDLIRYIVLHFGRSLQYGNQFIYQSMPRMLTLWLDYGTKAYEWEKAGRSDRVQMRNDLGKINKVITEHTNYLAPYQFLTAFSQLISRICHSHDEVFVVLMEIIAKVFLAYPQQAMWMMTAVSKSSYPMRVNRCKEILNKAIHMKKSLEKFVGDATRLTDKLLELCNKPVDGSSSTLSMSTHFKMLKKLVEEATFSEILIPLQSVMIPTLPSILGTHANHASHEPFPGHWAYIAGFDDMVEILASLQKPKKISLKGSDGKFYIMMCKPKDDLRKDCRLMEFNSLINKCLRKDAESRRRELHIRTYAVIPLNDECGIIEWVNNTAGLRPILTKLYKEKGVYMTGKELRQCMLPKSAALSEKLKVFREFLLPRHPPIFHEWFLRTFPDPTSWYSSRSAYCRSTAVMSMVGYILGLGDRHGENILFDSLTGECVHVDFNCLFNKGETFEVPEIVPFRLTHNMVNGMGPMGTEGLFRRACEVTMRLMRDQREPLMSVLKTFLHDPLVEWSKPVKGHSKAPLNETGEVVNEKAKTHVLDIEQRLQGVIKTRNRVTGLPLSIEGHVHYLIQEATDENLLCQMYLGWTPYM
pIC50: −log10 of the molar value.

| Mol smiles | pIC50 |
| --- | --- |
| CO[C@H]1C[C@@H](n2c(=O)n(C)c3cnc4ccc(-c5ccc(OCCCN6CCOCC6)nc5)cc4c32)C1 | < 4.52 |
| CO[C@H]1C[C@@H](n2c(=O)n(C)c3cnc4ccc(-c5ccc(OCCCN6CCCC6)nc5)cc4c32)C1 | < 4.62 |
| COCc1ccc(-c2cc3c(cc2F)ncc2c3n([C@H]3C[C@H](OC)C3)c(=O)n2C)cn1 | < 4.55 |
| COCc1ccc(-c2cc3c(cc2F)ncc2c3n([C@H]3CC[C@H](OC)CC3)c(=O)n2C)cn1 | < 4.59 |

----------
Assay: Tmax in patient with solid tumor at 60 mg, po bid by LC-MS/MS analysis
Assay type: ADME, organism-based
Conditions: human, in vivo

| Mol smiles | Tmax [h] |
| --- | --- |
| CN(C)CCCOc1ccc(-c2ccc3ncc4c(c3c2)n(C2CCOCC2)c(=O)n4C)cn1 | 2.5 |

Reference source for all entries: ChEMBL document CHEMBL4152224
